Listing: MIC PM 10775 of selected compounds
System: Pasteurella multocida PM 10775 (080130003051, BRD field isolate)
Assay: MIC, broth-microdilution (CLSI VET01-A4), strain PM 10775
Type: cell-based
Settings: Pasteurella multocida strain PM 10775, broth-microdilution; unit assumed

Query O=C(N[C@@H](CO)C(=O)NO)c1ccc(C#Cc2ccc(CN3CCS(=O)(=O)CC3)cc2)cc1 yields MIC PM 10775 of ≤ 0.1 µg/mL

Query COCCNCc1ccc(C#Cc2ccc(C(=O)N[C@@H](CO)C(=O)NO)cc2)cc1 yields MIC PM 10775 of ≤ 0.1 µg/mL

Query CC(C)([C@H](NC(=O)c1ccc(C#Cc2ccc(CNCc3ccco3)nc2)cc1)C(=O)NO)S(C)(=O)=O yields MIC PM 10775 of ≤ 0.1 µg/mL

Query C=CCNCc1ccc(C#Cc2ccc(C(=O)N[C@H](C(=O)NO)C(C)(C)O)cc2)s1 yields MIC PM 10775 of ≤ 0.1 µg/mL

Origin of the recorded values: patent US11034650B2
